Where do these numbers come from? They come from the supplement of paper PMC5579334.

Tested on: S462
measurement notes: % inhibition of CellTiter-Glo viability at highest tested concentration (72 h), relative to DMSO and benzethonium chloride controls; higher = more inhibition
Think of 10% as a floor: if % inhibition stands on it or above, it is yes (1); beneath it, no (0).

Here's what some known entries look like.
- molecule: "O=C(CCCCCCC(=O)Nc1ccccc1)NO [Vorinostat] (max concentration tested 10000 nM)"
  tested on: "S462"
  cat: "yes (1)"
- molecule: "C=CC[C@@H]1/C=C(\\C)C[C@H](C)C[C@H](OC)[C@H]2O[C@@](O)(C(=O)C(=O)N3CCCC[C@H]3C(=O)O[C@H](/C(C)=C/[C@@H]3CC[C@@H](O)[C@H](OC)C3)[C@H](C)[C@@H](O)CC1=O)[C@H](C)C[C@@H]2OC [Tacrolimus] (max concentration tested 10000 nM)"
  tested on: "S462"
  cat: "no (0)"
- molecule: "NC(=O)c1ccc(I)c([N+](=O)[O-])c1 [Iniparib] (max concentration tested 10000 nM)"
  tested on: "S462"
  cat: "yes (1)"

Continue with the molecule presented below.
Decide: % inhibition of CN(Cc1cnc2nc(N)nc(N)c2n1)c1ccc(C(=O)N[C@@H](CCC(=O)O)C(=O)O)cc1 [Methotrexate] (max concentration tested 5000 nM) >= 10%?
yes (1)

###

Tested on: STS26T
measurement notes: drug sensitivity score (DSS, CellTox-Green cytotoxicity, 72 h) (DSS (dimensionless)); higher = more cytotoxic; extreme values may be limits of the assay
value kind: drug sensitivity score
Write the value as a bare number.

Examples with answers:
- compound: "CC[C@H](CC#N)OC(=O)N[C@@H](C)c1cccc(NC(=O)Nc2ccc(-c3cnco3)c(OC)c2)c1 [AVN944] (max concentration tested 10000 nM)"
  value kind: "drug sensitivity score"
  reported: 0.427
- compound: "CC(C)C[C@H](NC(=O)[C@H](CCc1ccccc1)NC(=O)CN1CCOCC1)C(=O)N[C@@H](Cc1ccccc1)C(=O)N[C@@H](CC(C)C)C(=O)[C@@]1(C)CO1 [Carfilzomib] (max concentration tested 1000 nM)"
  value kind: "drug sensitivity score"
  reported: 21.5

# input for lookup
Look up drug sensitivity score: Nc1nc(NC2CC2)cc(-c2cccc(Cl)c2Cl)n1 [TH588] (max concentration tested 25000 nM)
9.84

###

Tested on: S462
measurement notes: drug sensitivity score (DSS, CellTiter-Glo viability, 72 h) (DSS (dimensionless)); higher = more sensitive; extreme values may be limits of the assay
Think of 0.3 as a floor: if drug sensitivity score stands on it or above, it is YES; beneath it, NO.

Here's what some known entries look like.
- molecule: "C#Cc1cccc(Nc2ncnc3cc(OC)c(OCCCCCCC(=O)NO)cc23)c1 [CUDC-101] (max concentration tested 10000 nM)"
  cat: "YES"
- molecule: "CNCc1ccc(-c2[nH]c3cc(F)cc4c3c2CCNC4=O)cc1 [Rucaparib] (max concentration tested 10000 nM)"
  cat: "YES"
- molecule: "Cc1cc2c(F)c(Oc3ncnn4cc(OC[C@@H](C)O)c(C)c34)ccc2[nH]1 [Brivanib] (max concentration tested 1000 nM)"
  cat: "NO"
- molecule: "CN(C)/N=N/c1[nH]cnc1C(N)=O [Dacarbazine] (max concentration tested 10000 nM)"
  cat: "NO"

Continue with the molecule presented below.
Decide: drug sensitivity score of CCCCC(=O)OCC(=O)[C@]1(O)Cc2c(O)c3c(c(O)c2[C@@H](O[C@H]2C[C@H](NC(=O)C(F)(F)F)[C@H](O)[C@H](C)O2)C1)C(=O)c1c(OC)cccc1C3=O [Valrubicin] (max concentration tested 5000 nM) >= 0.3?
YES
